# assay: NCI Yeast Anticancer Drug Screen. Data for the rad50 strain (AID 155);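 also: 0% = growth of vehicle-only cultures of the same strain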
# conditions: S. cerevisiae rad50 strain growth inhibition; at 50.0 µM; hits give high values
This is part of a sample that, as a whole, favours compounds with a hit. Of some 79,000 tested, about 15% had one in any assay.
readout_name: growth inhibition (%)

molecule: O=C(Cc1ccc2c(c1)OCO2)c1ccc(O)cc1O
readout_name: growth inhibition
measured: 97.4
//
molecule: Cc1ccc(C)c(N2C(=O)C(=O)C(c3nc4ccccc4o3)C(=O)C2=O)c1
readout_name: growth inhibition
measured: 99
//
molecule: C#CC(NCCC(C)CC(C)(C)C)C(C)C (stereo not drawn)
readout_name: growth inhibition
measured: 83.3
//
molecule: NC(=Nc1cc2ccccc2c2ccccc12)/N=C(/N)Nc1cc2ccccc2c2ccccc12
readout_name: growth inhibition
measured: 60.6
//
molecule: CCCc1cc(=O)oc2c3c(c4c(c12)OC(C)(C)CC4)O[C@H](C)[C@@H](C)[C@H]3O
readout_name: growth inhibition
measured: 83.5
//
molecule: Cc1ccc(O)c(C(c2cccc(C(c3cc(C)ccc3O)c3cc(C)ccc3O)c2)c2cc(C)ccc2O)c1
readout_name: growth inhibition
measured: 95.5
//
molecule: CC(=O)Oc1c(Cl)cc(Cl)cc1C(c1cc(Cl)cc(Cl)c1OC(C)=O)C(Cl)(Cl)Cl
readout_name: growth inhibition
measured: 90.8
//
molecule: CCCCCCCCOc1ccc(/C=C/C(C)=N/NC(N)=NC)cc1OC
readout_name: growth inhibition
measured: 98.7
//
molecule: COC(=O)C12CCC(=O)C(C)=C1CCC(OC)(OC)C2 (stereo not drawn)
readout_name: growth inhibition
measured: 95.2
//
molecule: CC(C)(C)C(=O)CC(=O)C(F)(F)C(F)(F)C(F)(F)F.CC(C)(C)C(=O)CC(=O)C(F)(F)C(F)(F)C(F)(F)F.CC(C)(C)C(=O)CC(=O)C(F)(F)C(F)(F)C(F)(F)F.[Fe]
readout_name: growth inhibition
measured: 38.5
//
molecule: COc1ccc(-c2cscc2N)cc1
readout_name: growth inhibition
measured: 67.5
//
molecule: CCC[CH2][Sn]1([CH2]CCC)[O]C(=O)CN=Cc2c(ccc3ccccc23)[O]1
readout_name: growth inhibition
measured: 91.2
//
molecule: CC1CC(c2ccccc2)CC(C)N1c1ccc2ccccc2c1 (stereo not drawn)
readout_name: growth inhibition
measured: 77.8
//
molecule: C[C@]12CCC3[C@@H](CC[C@@H]4c5nonc5CC[C@]34C)C1CCC(=O)N2 (stereo partly drawn)
readout_name: growth inhibition
measured: 50.1
//
molecule: O=Cc1cc(O)ccc1Br
readout_name: growth inhibition
measured: 71.3
//
molecule: O=C(Cn1cnc2ccc([N+](=O)[O-])cc21)N1CCN(c2ccccc2)CC1
readout_name: growth inhibition
measured: 10.3
//
molecule: FC(F)(F)c1nc(S)cc(=S)[nH]1
readout_name: growth inhibition
measured: -21.2
//
molecule: N#CSCc1c(Cl)cccc1Cl
readout_name: growth inhibition
measured: 81.7
//
molecule: Cc1nc(N)sc1N=Nc1cccc(Cl)c1Cl
readout_name: growth inhibition
measured: 71.5
//
molecule: CCOc1c(N=Nc2ccccc2OC)c(C)nn1C(N)=S
readout_name: growth inhibition
measured: 8.85
//
molecule: Cc1ccc(S(=O)(=O)n2c3c(c4ccccc42)CCN2C(=O)C(S(=O)(=O)c4ccccc4)=CCC32)cc1 (stereo not drawn)
readout_name: growth inhibition
measured: 94.6
//
molecule: O=C(Nc1cccc(Br)c1)Oc1cccc2cccnc12
readout_name: growth inhibition
measured: 85.7
//
molecule: C[n+]1c(-c2ccc(/C=N/NC(=O)C(=O)N/N=C/c3ccc(-c4cn5ccccc5[n+]4C)cc3)cc2)cn2ccccc21
readout_name: growth inhibition
measured: 89.8
